Molecular target: GR (cytosol from IM-9 cells) (Homo sapiens)
Sequence (P04150 whole entry): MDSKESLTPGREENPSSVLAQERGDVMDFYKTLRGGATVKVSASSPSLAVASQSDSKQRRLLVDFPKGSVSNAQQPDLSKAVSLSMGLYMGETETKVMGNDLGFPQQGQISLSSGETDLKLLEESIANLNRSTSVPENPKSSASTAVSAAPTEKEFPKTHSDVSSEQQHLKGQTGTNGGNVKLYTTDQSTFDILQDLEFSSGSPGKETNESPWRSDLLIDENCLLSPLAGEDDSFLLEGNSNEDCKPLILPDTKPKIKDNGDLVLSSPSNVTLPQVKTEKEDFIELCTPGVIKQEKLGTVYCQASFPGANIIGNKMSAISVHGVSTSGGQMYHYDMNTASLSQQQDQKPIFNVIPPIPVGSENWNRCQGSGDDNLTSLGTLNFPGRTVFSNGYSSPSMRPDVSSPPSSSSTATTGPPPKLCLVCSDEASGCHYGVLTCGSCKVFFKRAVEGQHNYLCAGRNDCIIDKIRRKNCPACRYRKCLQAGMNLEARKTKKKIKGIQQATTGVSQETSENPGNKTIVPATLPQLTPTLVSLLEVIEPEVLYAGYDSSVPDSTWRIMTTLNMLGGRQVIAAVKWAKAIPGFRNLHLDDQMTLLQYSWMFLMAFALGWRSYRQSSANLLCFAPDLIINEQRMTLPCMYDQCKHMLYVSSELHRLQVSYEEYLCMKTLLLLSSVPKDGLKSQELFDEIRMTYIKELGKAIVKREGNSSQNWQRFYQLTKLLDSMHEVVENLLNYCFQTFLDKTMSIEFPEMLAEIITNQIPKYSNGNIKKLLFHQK
Experiment: GR binding assay (3H-Dexamethasone displacement)
pIC50: −log10 of the molar value.
# pIC50 values compiled below

Solved cases below.
SMILES TEXT	RECORDED MEASUREMENT
CC[C@@]1(OC(=O)N2CCN(CCCCCCN(C)c3ccc([C@H]4C[C@@]5(C)[C@@H](CC[C@]5(OC(C)=O)C(C)=O)[C@@H]5CCC6=CC(=O)CCC6=C54)cc3)CC2)C(=O)OCc2c1cc1n(c2=O)Cc2cc3cc(O)ccc3nc2-1	> 8.00
CC[C@@]1(O)C(=O)OCc2c1cc1n(c2=O)Cc2cc3c(CN4CCN(C(=O)C5CCN(c6ccc(C(=O)N[C@H]7CC[C@H](Oc8ccc(C#N)c(Cl)c8C)CC7)nn6)CC5)CC4)c(OC(=O)N4CCN(C)CC4)ccc3nc2-1	7.00 to 8.00

# next compound below
Task item: Report pIC50, nothing else, for this compound: `CC[C@@]1(OC(=O)CN(C)C)C(=O)OCc2c1cc1n(c2=O)Cc2cc3c(CN(C)C)c(OC(=O)N4CCN(CCCCCCN(C)c5ccc([C@H]6C[C@@]7(C)[C@@H](CC[C@]7(OC(C)=O)C(C)=O)[C@@H]7CCC8=CC(=O)CCC8=C76)cc5)CC4)ccc3nc2-1`
Reply: > 8.00

----------
Tested on: T47D cells
Assay: Cell viability assay (CellTiterGlo)
Format: cell-based
Details: Homo sapiens, 144 h, read-out: T47D (IC50, nM)
ENDPOINT LABEL: IC50

SMILES TEXT	EXPERIMENTAL TARGET	IC50
CC#C[C@]1(O)CC[C@H]2[C@@H]3CCC4=CC(=O)CCC4=C3[C@@H](c3ccc(N(C)CCCCCCN4CCN(C(=O)Oc5ccc6nc7c(cc6c5CN(C)C)Cn5c-7cc6c(c5=O)COC(=O)[C@]6(O)CC)CC4)cc3)C[C@@]21C	T47D cells	10 to 100 nM

# next compound below
Task item: Report IC50, nothing else, for this compound: `CC[C@@]1(O)C(=O)OCc2c1cc1n(c2=O)Cc2cc3c(CN(C)C)c(OC(=O)N4CCN(C(=O)[C@H](CCCNC(N)=O)NC(=O)[C@@H](NCCCCCCN(C)c5ccc([C@H]6C[C@@]7(C)[C@@H](CC[C@]7(OC(C)=O)C(C)=O)[C@@H]7CCC8=CC(=O)CCC8=C76)cc5)C(C)C)CC4)ccc3nc2-1`
Reply: 101 to 1000 nM

----------
System: T47D cells
Assay: Cell viability assay (CellTiterGlo)
Format: cell-based
Details: Homo sapiens, 144 h, read-out: T47D (IC50, nM)
ENDPOINT LABEL: IC50

SMILES TEXT	ENDPOINT LABEL	RECORDED MEASUREMENT
CC[C@@]1(O)C(=O)OCc2c1cc1n(c2=O)Cc2cc3c(CN(C)C)c(OC(=O)N4C5CC4CN(CCCCCCN(C)c4ccc([C@H]6C[C@@]7(C)[C@@H](CC[C@]7(OC(C)=O)C(C)=O)[C@@H]7CCC8=CC(=O)CCC8=C76)cc4)C5)ccc3nc2-1	IC50	10 to 100 nM
CC[C@@]1(O)C(=O)OCc2c1cc1n(c2=O)Cc2cc3c(CN(C)C)c(OC(=O)N4CCN(CCCCCCNc5ccc([C@H]6C[C@@]7(C)[C@@H](CC[C@]7(OC(C)=O)C(C)=O)[C@@H]7CCC8=CC(=O)CCC8=C76)cc5)CC4)ccc3nc2-1	IC50	10 to 100 nM
CC[C@@]1(O)C(=O)OCc2c1cc1n(c2=O)Cc2cc3c(CN(C)C)c(OC(=O)N4C[C@H](C)N(C(=O)[C@H](CCCNC(N)=O)NC(=O)[C@@H](NCCCCCCN(C)c5ccc([C@H]6C[C@@]7(C)[C@@H](CC[C@]7(OC(C)=O)C(C)=O)[C@@H]7CCC8=CC(=O)CCC8=C76)cc5)C(C)C)C[C@H]4C)ccc3nc2-1	IC50	101 to 1000 nM
CC[C@@]1(OC(=O)CN(C)C)C(=O)OCc2c1cc1n(c2=O)Cc2cc3c(CN(C)C)c(OC(=O)N4CCN(CCCCCCN(C)c5ccc([C@H]6C[C@@]7(C)[C@@H](CC[C@]7(OC(C)=O)C(C)=O)[C@@H]7CCC8=CC(=O)CCC8=C76)cc5)CC4)ccc3nc2-1	IC50	10 to 100 nM

# next compound below
Task item: Report IC50, nothing else, for this compound: `CC[C@@]1(O)C(=O)OCc2c1cc1n(c2=O)Cc2cc3c(CN(C)C)c(OC(=O)N4CCN(CCCCCCCN(C)c5ccc([C@H]6C[C@@]7(C)[C@@H](CC[C@]7(OC(C)=O)C(C)=O)[C@@H]7CCC8=CC(=O)CCC8=C76)cc5)CC4)ccc3nc2-1`
Reply: 10 to 100 nM

----------
# IC50 values compiled below
Biological target: ligand binding domain of the glucocorticoid receptor (HEK293 cells stably expressing) (Homo sapiens, UniProt P04150)
Sequence (P04150 524-758 limits assumed): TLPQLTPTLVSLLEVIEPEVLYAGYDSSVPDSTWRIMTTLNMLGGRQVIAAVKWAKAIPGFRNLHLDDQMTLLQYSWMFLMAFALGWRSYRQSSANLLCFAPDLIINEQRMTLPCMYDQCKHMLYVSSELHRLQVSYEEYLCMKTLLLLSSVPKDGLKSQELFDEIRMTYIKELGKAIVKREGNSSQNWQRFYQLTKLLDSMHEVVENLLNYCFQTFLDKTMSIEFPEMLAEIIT
Experiment: GR antagonism assay (luciferase reporter)

COMPOUND	IC50
CC[C@@]1(O)C(=O)OCc2c1cc1n(c2=O)Cc2cc3c(CN4CCN(CC5CCN(c6ccc(C(=O)N[C@H]7CC[C@H](Oc8ccc(C#N)c(Cl)c8C)CC7)nn6)CC5)CC4)c(O)ccc3nc2-1 [Compound 26]	> 1000 nM
CC[C@@]1(O)C(=O)OCc2c1cc1n(c2=O)Cc2c-1nc1cc(F)c(C)c3c1c2[C@@H](NC(=O)COC(=O)N1CCN(CCCCCCN(C)c2ccc([C@H]4C[C@@]5(C)[C@@H](CC[C@]5(OC(C)=O)C(C)=O)[C@@H]5CCC6=CC(=O)CCC6=C54)cc2)CC1)CC3 [Compound 42]	10 to 100 nM
CC#C[C@]1(O)CC[C@H]2[C@@H]3CCC4=CC(=O)CCC4=C3[C@@H](c3ccc(N(C)CCCCCCN4CCN(C(=O)Oc5ccc6nc7c(cc6c5CN(C)C)Cn5c-7cc6c(c5=O)COC(=O)[C@]6(O)CC)CC4)cc3)C[C@@]21C [Compound 29]	< 10 nM

# next compound below
Task item: Report IC50, nothing else, for this compound: CC[C@@]1(O)C(=O)OCc2c1cc1n(c2=O)Cc2cc3c(CN4CCN(C(=O)C5CCN(c6ccc(C(=O)N[C@H]7CC[C@H](Oc8ccc(C#N)c(Cl)c8C)CC7)nn6)CC5)CC4)c(OC(=O)N4CCN(C)CC4)ccc3nc2-1 [Compound 27]
Reply: > 1000 nM

----------
Target: full-length androgen receptor (HEK293 cells stably expressing) (Homo sapiens)
Sequence (P10275 whole entry): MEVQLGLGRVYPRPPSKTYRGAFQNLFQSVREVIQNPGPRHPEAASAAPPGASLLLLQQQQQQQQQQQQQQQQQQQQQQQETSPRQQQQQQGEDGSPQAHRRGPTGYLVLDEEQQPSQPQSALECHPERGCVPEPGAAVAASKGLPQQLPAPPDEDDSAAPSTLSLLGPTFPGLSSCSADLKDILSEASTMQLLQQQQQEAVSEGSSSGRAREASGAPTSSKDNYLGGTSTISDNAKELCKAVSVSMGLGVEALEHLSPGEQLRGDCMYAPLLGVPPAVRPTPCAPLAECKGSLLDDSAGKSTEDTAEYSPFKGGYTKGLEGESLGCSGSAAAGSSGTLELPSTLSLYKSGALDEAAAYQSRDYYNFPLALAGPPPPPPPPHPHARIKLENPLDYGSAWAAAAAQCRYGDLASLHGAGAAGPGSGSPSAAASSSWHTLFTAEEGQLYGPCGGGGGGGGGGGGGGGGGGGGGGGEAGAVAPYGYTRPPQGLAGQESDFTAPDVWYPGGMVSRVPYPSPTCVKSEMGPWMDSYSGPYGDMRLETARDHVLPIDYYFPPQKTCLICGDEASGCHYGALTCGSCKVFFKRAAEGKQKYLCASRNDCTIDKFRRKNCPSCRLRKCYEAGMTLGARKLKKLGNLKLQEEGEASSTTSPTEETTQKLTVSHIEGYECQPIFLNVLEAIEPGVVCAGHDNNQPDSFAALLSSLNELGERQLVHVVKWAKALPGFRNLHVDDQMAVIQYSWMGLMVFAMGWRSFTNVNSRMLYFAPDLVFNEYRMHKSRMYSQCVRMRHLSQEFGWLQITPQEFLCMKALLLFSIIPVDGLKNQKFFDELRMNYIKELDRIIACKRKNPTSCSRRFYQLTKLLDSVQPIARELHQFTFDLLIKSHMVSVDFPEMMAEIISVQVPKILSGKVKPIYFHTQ
Assay: AR antagonism assay (luciferase reporter)
pIC50: −log10 of the molar value.
# pIC50 values compiled below

Solved cases below.
SMILES TEXT	pIC50
CC[C@@]1(O)C(=O)OCc2c1cc1n(c2=O)Cc2c-1nc1cc(F)c(C)c3c1c2[C@@H](NC(=O)COCCCCCCN(C)c1ccc([C@H]2C[C@@]4(C)[C@@H](CC[C@]4(OC(C)=O)C(C)=O)[C@@H]4CCC5=CC(=O)CCC5=C42)cc1)CC3	7.00 to 8.00
CC[C@@]1(O)C(=O)OCc2c1cc1n(c2=O)Cc2cc3c(CN4CCN(C(=O)C5CCN(c6ccc(C(=O)N[C@H]7CC[C@H](Oc8ccc(C#N)c(Cl)c8)CC7)nn6)CC5)CC4)c(OC(=O)N(C(C)C)C(C)C)ccc3nc2-1	< 6.00
CC[C@@]1(O)C(=O)OCc2c1cc1n(c2=O)Cc2c-1nc1cc(F)c(C)c3c1c2[C@@H](NC(=O)CN1CCN(CCCCCCN(C)c2ccc([C@H]4C[C@@]5(C)[C@@H](CC[C@]5(OC(C)=O)C(C)=O)[C@@H]5CCC6=CC(=O)CCC6=C54)cc2)CC1)CC3	6.00 to 7.00
CC[C@@]1(O)C(=O)OCc2c1cc1n(c2=O)Cc2c-1nc1cc(F)c(C)c3c1c2[C@@H](NC(=O)COC(=O)N1CCN(CCCCCCN(C)c2ccc([C@H]4C[C@@]5(C)[C@@H](CC[C@]5(OC(C)=O)C(C)=O)[C@@H]5CCC6=CC(=O)CCC6=C54)cc2)CC1)CC3	6.00 to 7.00
CC[C@@]1(O)C(=O)OCc2c1cc1n(c2=O)Cc2cc3c(CN4CCN(C(=O)C5CCN(c6ccc(C(=O)N[C@H]7CC[C@H](Oc8ccc(C#N)c(Cl)c8C)CC7)nn6)CC5)CC4)c(OC(=O)N4CCN(C)CC4)ccc3nc2-1	6.00 to 7.00

Task item: Report pIC50, nothing else, for this compound: `CC[C@@]1(O)C(=O)OCc2c1cc1n(c2=O)Cc2cc3c(CN4CCN(CCCCCCN(C)c5ccc([C@H]6C[C@@]7(C)[C@@H](CC[C@]7(OC(C)=O)C(C)=O)[C@@H]7CCC8=CC(=O)CCC8=C76)cc5)CC4)cccc3nc2-1`
Reply: < 6.00

Task item: Report pIC50, nothing else, for this compound: `CC[C@@]1(O)C(=O)OCc2c1cc1n(c2=O)Cc2cc3c(CN(C)C)c(OC(=O)N4CCN(CC5CCN(c6ccc(C(=O)N[C@H]7CC[C@H](N(C)c8ccc(C#N)c(Cl)c8)CC7)nn6)CC5)CC4)ccc3nc2-1`
Reply: 6.00 to 7.00

Task item: Report pIC50, nothing else, for this compound: `CC[C@@]1(O)C(=O)OCc2c1cc1n(c2=O)Cc2cc3c(CN(C)C)c(OC(=O)N4C[C@H](C)N(C(=O)[C@H](CCCNC(N)=O)NC(=O)[C@@H](NCCCCCCN(C)c5ccc([C@H]6C[C@@]7(C)[C@@H](CC[C@]7(OC(C)=O)C(C)=O)[C@@H]7CCC8=CC(=O)CCC8=C76)cc5)C(C)C)C[C@H]4C)ccc3nc2-1`
Reply: < 6.00
